I'd appreciate it if you could supply PBM binding z-score values for the items below.
System: RARb:RXRa (NR concentration 270 nM, RXRa partner concentration 90 nM)
Assay: PBM binding z-score (relative to random genomic background probes); higher = stronger binding; sequences stand for … in GC…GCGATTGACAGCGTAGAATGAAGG
One number for each entry.

// below: answered sequences
TCTTGTGGATCAGCAGGTTAAGAAAGCTGGCCAA
0.338
CCTACTGGACCATTCAGAGGTCATTGATCATATG
2.8
TCGAGTAGGCTAGGGGCATTCAGAATGGCGTCGA
0.171
TCTGCTAGGTCAACGATGGTAAGCTAATCTGCTA
4.03
ACAAACAGGTGAGTGAAGGTAACTCAGCTGGACG
0.585

Please report PBM binding z-score for every entry that follows.
1. CGTCAAAGTTCAACTAAGGTAAGGTAAAGCACGC
2. AATACAGGGTCACAAGGCCAGAGTAGGTACGAAT
3. CCTACTGGGCCTCGAAAGGTCATTGATTCAGTGA
4. CGTCCACGGTCATAGGAGGTCAGTGAAGACAGAT
5. GATACAGGGTCAAGACCAGAGTACGCGTATTGAT
6. GCTAGGAGGCCATTTGGGTCACTCAATGACGGGC
7. TAGCCTAGGTCATTCAGGGGCCAGTTTAGAAAGC

1. 5.2
2. 4.6
3. 3.66
4. 3.65
5. 4.28
6. 1.95
7. 3.61
